The measured values listed here are drawn from patent US20240342167A1.

Recorded measurements of Average GP2a (relative fluorescence intensity, SRCR5/GP2a BiFC), one per entry
# system: PPI between PRRSV glycoprotein GP2a and CD163-SRCR5 (Sus scrofa)
# Construct: SRCR5 domain of porcine CD163 receptor was amplified from cDNA of pig cells; expressed in transfected cells; host or cells: HEK293T
# Sequence (Q2VL90 477-577): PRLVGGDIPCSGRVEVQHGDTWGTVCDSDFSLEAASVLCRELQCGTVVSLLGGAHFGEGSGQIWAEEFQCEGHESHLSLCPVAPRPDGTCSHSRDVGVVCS
# protocolDescription: BiFC assay GP2a/SRCR5
# Assay type: cell-based, porcine CD163; PRRSV VR2332
# experimentalContext: 5 μM, HEK293T, 24 h after transfection, relative to NC (DMSO) = 1.00, n=3
API doc: respond with a numeric literal and nothing else, no unit.

Observe how each entry below is paired with its result.
{"compound": "Cc1ccccc1S(=O)(=O)Nc1nc2ccccc2nc1Nc1ccc(S(=O)(=O)N2CCOCC2)cc1 [D2]", "reported": 0.07}
{"compound": "O=S(=O)(Nc1nc2ccccc2nc1Nc1cccc(S(=O)(=O)N2CCCC2)c1)c1ccccc1", "reported": 0.19}

# input Requested read-out Average GP2a (relative fluorescence intensity, SRCR5/GP2a BiFC), target or system PPI between PRRSV glycoprotein GP2a and CD163-SRCR5 (Sus scrofa), entry Cc1ccccc1Nc1nc2ccccc2nc1NS(=O)(=O)c1ccc(F)cc1C
# output 0.30

# input Requested read-out Average GP2a (relative fluorescence intensity, SRCR5/GP2a BiFC), target or system PPI between PRRSV glycoprotein GP2a and CD163-SRCR5 (Sus scrofa), entry O=S(=O)(Nc1nc2ccccc2nc1Nc1ccc(Cl)c(S(=O)(=O)N2CCOCC2)c1)c1ccccc1
# output 0.13

# input Requested read-out Average GP2a (relative fluorescence intensity, SRCR5/GP2a BiFC), target or system PPI between PRRSV glycoprotein GP2a and CD163-SRCR5 (Sus scrofa), entry Cc1cc(F)ccc1S(=O)(=O)Nc1nc2ccccc2nc1Nc1cccc(Cl)c1
# output 0.10

# input Requested read-out Average GP2a (relative fluorescence intensity, SRCR5/GP2a BiFC), target or system PPI between PRRSV glycoprotein GP2a and CD163-SRCR5 (Sus scrofa), entry COc1ccc(NS(=O)(=O)c2cccc(Nc3nc4ccccc4nc3NS(=O)(=O)c3ccc(F)cc3C)c2)cc1
# output 0.10

# input Requested read-out Average GP2a (relative fluorescence intensity, SRCR5/GP2a BiFC), target or system PPI between PRRSV glycoprotein GP2a and CD163-SRCR5 (Sus scrofa), entry Cc1cc(F)ccc1S(=O)(=O)Nc1nc2ccccc2nc1Nc1ccccc1
# output 0.15

# input Requested read-out Average GP2a (relative fluorescence intensity, SRCR5/GP2a BiFC), target or system PPI between PRRSV glycoprotein GP2a and CD163-SRCR5 (Sus scrofa), entry Cc1cc(F)ccc1S(=O)(=O)Nc1nc2ccccc2nc1Nc1cccc(Cl)c1C
# output 0.12

# input Requested read-out Average GP2a (relative fluorescence intensity, SRCR5/GP2a BiFC), target or system PPI between PRRSV glycoprotein GP2a and CD163-SRCR5 (Sus scrofa), entry COc1ccc(Nc2nc3ccccc3nc2NS(=O)(=O)c2ccc(F)cc2C)cc1
# output 0.63
